- Assayed System: Cytochrome P450 2D6 (Homo sapiens) (UniProt P10635)
- Sequence (P10635 whole entry, looked up): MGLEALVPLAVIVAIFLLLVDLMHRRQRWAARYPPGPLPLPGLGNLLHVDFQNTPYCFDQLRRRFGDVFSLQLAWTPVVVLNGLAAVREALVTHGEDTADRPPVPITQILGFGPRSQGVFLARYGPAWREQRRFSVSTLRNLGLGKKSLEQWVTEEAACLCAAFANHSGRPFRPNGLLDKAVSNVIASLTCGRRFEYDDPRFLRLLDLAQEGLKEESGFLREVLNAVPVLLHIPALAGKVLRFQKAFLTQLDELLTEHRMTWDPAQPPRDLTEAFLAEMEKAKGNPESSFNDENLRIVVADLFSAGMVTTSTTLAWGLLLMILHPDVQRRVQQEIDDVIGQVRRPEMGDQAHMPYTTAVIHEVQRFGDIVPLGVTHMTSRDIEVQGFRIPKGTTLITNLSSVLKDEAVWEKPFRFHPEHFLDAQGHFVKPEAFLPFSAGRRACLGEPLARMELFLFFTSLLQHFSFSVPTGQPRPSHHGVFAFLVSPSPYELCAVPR
- Protocol: qHTS Assay for Inhibitors and Substrates of Cytochrome P450 2D6 (AID 891); also: nearly all actives have a fitted effect of over 60% in size
- Condition Context: recombinant CYP2D6, luciferin-ME EGE luminescence; series mostly up to 57.1 µM
Records with an inconclusive call do not appear. Active and inactive are the calls of the source. Calls follow the shape of the dose curve; as a rule, active = well fitted inhibition curve with a large enough effect; inconclusive = small, poorly fitted or top-dose-only effect; inactive = no such curve, though single readings can be large or run the other way.
The reply should be one of these categories: active, inactive

Exercise: So what was the verdict on CCN(CC)[C@@H](C)CN1c2ccccc2Sc2ccccc21 in this test?
Solution: active

---
Exercise: Identify the outcome logged in this assay for the molecule shown: CC(=O)N[C@H](CS)C(=O)O
Solution: inactive

Exercise: I'd appreciate the recorded outcome for Cc1onc(-c2c(Cl)cccc2Cl)c1C(=O)N[C@H]1C(=O)N2[C@H]1SC(C)(C)[C@H]2C(=O)O from this test.
Solution: inactive

Exercise: Tell me the assay call for NCCC(=O)N[C@@H](Cc1cnc[nH]1)C(=O)O please.
Solution: inactive

Exercise: Each molecule tested received a call. Report the one for C1CCC(C(C[C@@H]2CCCCN2)C2CCCCC2)CC1 .
Solution: active

Exercise: What was the test verdict on O[C@@](CCN1CCCCC1)(c1ccccc1)[C@@H]1C[C@H]2C=C[C@@H]1C2 ?
Solution: active

###

- Assayed System: Rap guanine nucleotide exchange factor 3 (Homo sapiens) (UniProt O95398)
- Protocol: Counterscreen qHTS for agonist of cAMP-regulated guanine nucleotide exchange factor 3 (EPAC1) (AID 1645889); also: % of control where 0% means no effect; nearly all actives have a fitted effect of over 40% in size
- Condition Context: EPAC1 Rap1B-BODIPY-GDP exchange, fluorescence; series mostly up to 154 µM
Records with an inconclusive call do not appear. The source made the active and inactive calls. Calls follow the shape of the dose curve; as a rule, active = well fitted activation curve with a large enough effect; inconclusive = small, poorly fitted or top-dose-only effect, or another doubt; inactive = no such curve, though single readings can be large or run the other way.
Outcome Measure: activation

Solved entries (count: 5):
Exercise: Identify measured activation associated with Cc1ccc(OCC(=O)Nc2ccccc2N2CCCC2)c(C)c1
Solution: inactive

Exercise: Look up and state reported activation for CCCc1cc2c(cc1N(C)S(=O)(=O)c1ccccc1)OCO2
Solution: inactive

Exercise: Let me know recorded activation for N#C/C(=C\c1cn(Cc2ccc(C#N)cc2)c2ccccc12)C(=O)NCc1cccs1 , thanks.
Solution: 15.9% [at 30.8 µM] (inactive)

Exercise: Retrieve activation measured for COc1cccc(-n2nnc3c(=O)n(C/C=C/c4ccccc4)cnc32)c1 and print it.
Solution: 17.3% [at 30.8 µM] (inactive)

Exercise: Identify the reported activation for the following entry. CC1CN(C(=O)COC(=O)COc2ccc(C#N)cc2)CC(C)O1 (stereo unspecified)
Solution: 1.53% [at 30.8 µM] (inactive)

Give one value of activation per listed compound.
1. COc1cc(-c2c(CCO)sc3ccccc23)cc(OC)c1OC
2. CCCN(CC(=O)Nc1ccccc1C)C(=O)C1CCN(S(=O)(=O)c2ccccc2C(F)(F)F)CC1
3. O=C(O)c1ccccc1NS(=O)(=O)c1ccc(N/N=C/c2ccc(O)c(O)c2)c([N+](=O)[O-])c1

Solution:
["8.02% [at 30.8 µM] (inactive)", "inactive", "24.6% [at 30.8 µM] (inactive)"]

###

- System: GB4
- Protocol: qHTS profiling for inhibitors of Plasmodium falciparum proliferation (AID 504749);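 also: 0% = DMSO vehicle and full inhibition = artemisinin control; nearly all actives have a fitted effect of over 60% in size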
- Condition Context: P. falciparum in erythrocytes, SYBR Green DNA, 72 h; series mostly up to 12.8 µM
- Procedure: NIH National Institute of Allergy and Infectious Diseases [NIAID] NIH Chemical Genomics Center [NCGC] […] Because mature erythrocytes lack DNA, only Plasmodium-derived DNA is detected. NCGC Assay Protocol Summary: The SYBR Green viability assay was adapted from a method described previously (Plouffe et al., 2008). […] The following morning, fluorescence intensity at 485(14) nm excitation and 535(25) nm emission wavelengths was measured on an EnVision (Perkin Elmer) plate reader. […]
Inconclusive results are not listed. Active and inactive are the calls of the source. The call rests on the fitted dose curve; in most records, active means well fitted inhibition curve with a large enough effect; inconclusive means small, poorly fitted or top-dose-only effect; inactive means flat fitted curve, though single readings scatter. Peptide text beside a SMILES is read from it.
Your response should consist of one outcome taken from active, inactive

Here's what some known entries look like.
Exercise: Hi, do you know how C=CC1=C(C(=O)O)N2C(=O)[C@@H](NC(=O)/C(=N\OCC(=O)O)c3csc(N)n3)[C@@H]2SC1 came out in this test?
Solution: inactive

Exercise: Tell me the recorded outcome of this test for NC[C@@H]1O[C@H](O[C@H]2[C@H](O)[C@H](O[C@@H]3O[C@H](CO)[C@@H](O)[C@H](N)[C@@H]3O)[C@@H](N)C[C@H]2N)[C@@H](O)[C@H](O)[C@@H]1O .
Solution: inactive

Exercise: # lookup: test call for COC(=O)C(Cc1ccccc1)NC(=O)C(N)CC(=O)O (stereo not drawn) (H-Asp-Phe-OMe; configuration not given here)
Solution: inactive

Now let's try a different one.
Exercise: Hi, do you know how CC(=O)OCC(=O)[C@@]1(O)CC[C@@H]2[C@H]3CCC4=CC(=O)C=C[C@]4(C)[C@]3(F)[C@@H](O)C[C@@]21C came out in this test?
Solution: inactive
